All figures here come from ChEMBL document CHEMBL4346752.

assay summary: Efflux ratio of apparent permeability across basolateral to apical over apical to basolateral side in MDCK cells at […] incubated for 60 mins by HPLC analysis
Assay type: ADME, cell-based, Canis lupus familiaris
condition parameters: dog, MDCK
quantity: efflux ratio at 1 h

Sample `C[C@]1(CN2CCc3nc(-c4ccccc4)ccc3C2)Cn2cc([N+](=O)[O-])nc2O1` — what was its efflux ratio at 1 h?
1.35

###

assay summary: Solubility of the compound in water at pH 2 by HPLC analysis
Assay type: physicochemical
Measured solubility, listed per entry.
Give just the numeric value; µM need not be written.

>  <compound structure>
C[C@]1(CN2CCc3nc(-c4ccccc4)ccc3C2)Cn2cc([N+](=O)[O-])nc2O1

>  <units label>
µM

>  <solubility>
130

$$$$

Form field: reported solubility of `C[C@]1(CN2CCc3nc(-c4ccc(F)cc4)ccc3C2)Cn2cc([N+](=O)[O-])nc2O1`
143

###

assay summary: Cytotoxicity against African green monkey Vero cells assessed as reduction in cell viability incubated for 72 hrs by MTT assay
Format: cell-based
condition parameters: chlorocebus sabaeus
quantity: CC50 at 72 h

Consider the reported CC50 at 72 h for these compounds:
>  <compound structure>
C[C@]1(CN2CCc3nc(-c4ccc(F)cc4F)ccc3C2)Cn2cc([N+](=O)[O-])nc2O1

>  <CC50 at 72 h>
12.5 µg/mL

$$$$
>  <compound structure>
C[C@]1(CN2CCc3nc(-c4ccc(F)c(F)c4)oc3C2)Cn2cc([N+](=O)[O-])nc2O1

>  <CC50 at 72 h>
> 32 µg/mL

$$$$
>  <compound structure>
C[C@]1(CN2CCc3nc(-c4ccc(F)c(Cl)c4)ccc3C2)Cn2cc([N+](=O)[O-])nc2O1

>  <CC50 at 72 h>
> 32 µg/mL

$$$$
>  <compound structure>
C[C@]1(CN2CCc3oc(-c4ccc(F)cc4)nc3C2)Cn2cc([N+](=O)[O-])nc2O1

>  <CC50 at 72 h>
> 32 µg/mL

$$$$

API: the following record is the query input.
Fill blank: measured CC50 at 72 h of the compound `C[C@]1(CN2CCc3nc(-c4ccc(F)cc4)sc3C2)Cn2cc([N+](=O)[O-])nc2O1` is ____.
> 32 µg/mL

###

assay summary: Apparent permeability across apical to basolateral side in MDCK cells at […] incubated for 60 mins by HPLC analysis
Assay type: ADME, cell-based, Canis lupus familiaris
condition parameters: dog, MDCK
quantity: Papp A→B at 1 h (×10⁻⁶ cm/s)
Express the result in ×10⁻⁶ cm/s but write the number alone.

>  <compound structure>
C[C@]1(COc2ccc(N3CCC(Oc4ccc(OC(F)(F)F)cc4)CC3)cc2)Cn2cc([N+](=O)[O-])nc2O1

>  <units label>
×10⁻⁶ cm/s

>  <Papp A→B at 1 h>
0.09

$$$$

Now consider a different compound.
Requested field: Papp A→B at 1 h. Item: `C[C@]1(CN2CCc3nc(-c4ccccc4)ccc3C2)Cn2cc([N+](=O)[O-])nc2O1`
16.8
